Where do the numbers come from? From patent US7671085B2.

assayed-target: FXR (Homo sapiens)
Construct: using a full length FXR on a natural response element
experiment: cell-based FXR transcription assay, FXR responsive promoter linked to luciferase reporter
protocol-conditions: cell-based FXR reporter assay; determined with Prism 3.0
Method: In addition to ensuring that only cell permeable compounds were selected for further optimization, this approach allows for the detection of FXR activation in a natural system (i.e., correct folding of the protein and in the presence of a complete compliment of co-activators and co-repressors). […] EC50 values were determined with Prism 3.0 software via the activity of the subject compound in the previously described cell based assay.
quantity-measured: EC50 (µM)

[A] COC(=O)/C=C/c1cccc(N(Cc2ccc(/C=C/c3c(F)cccc3F)cc2)C(=O)C(C)C)c1 [Compound 190]
[B] COC(=O)/C=C/c1cccc(N(Cc2ccc(-c3cc(Cl)cc(Cl)c3)cc2)C(=O)C(C)C)c1 [Compound 221]
Returns: the label, A or B , whose recorded EC50 is the lower number. When you have decided, please share the label of that item.
A

[P] COC(=O)/C=C/c1cccc(N(Cc2ccc(/C=C/c3c(Cl)cccc3Cl)cc2)C(=O)NC(C)C)c1 [Compound 179]
[Q] COC(=O)C=Cc1cccc(N(Cc2ccc(C=Cc3cccc(C(F)(F)F)c3)cc2)C(=O)C2CCCCC2)c1 [Compound 186]
[R] COC(=O)/C=C/c1cccc(N(Cc2ccc3c(c2OC)OC(C)(C)C=C3)C(=O)C2CCCCC2)c1 [Compound 65]
[S] COC(=O)/C=C/c1cccc(N(Cc2ccc(/C=C/c3ccc(C)cc3)cc2)C(=O)NC(C)C)c1 [Compound 176]
Ascending by EC50, please. Provide the ranking by listing each label in its place in the requested order.
R, P, Q, S
(R: 0.00358 µM, P: 0.216 µM, Q: 0.937 µM, S: 3.57 µM)

====

assayed-target: FXR (Homo sapiens)
Construct: using a full length FXR on a natural response element; expressed in transfected cells
experiment: cell-based FXR transcription assay, FXR responsive promoter linked to luciferase reporter
protocol-conditions: cell-based FXR reporter assay; footnote a not given
quantity-measured: RE^a

compound	RE^a
COC(=O)C=Cc1cccc(N(Cc2ccc(C=Cc3scnc3C)cc2)C(=O)NC(C)C)c1	0.42
COC(=O)C=Cc1cccc(N(Cc2ccc(C=Cc3cccc(C(F)(F)F)c3)cc2)C(=O)C2CCCCC2)c1	0.35
COC(=O)/C=C/c1cccc(N(Cc2ccc(/C=C/c3c(F)cccc3F)cc2)C(=O)NC(C)C)c1	0.21
COC(=O)C=Cc1cccc(N(Cc2ccc(C=Cc3ccccc3)cc2)C(=O)C2CCCCC2)c1	1.55
COC(=O)/C=C/c1cccc(N(Cc2ccc(-c3cc(Cl)cc(Cl)c3)cc2)C(=O)NC(C)C)c1	0.10

[1] COC(=O)/C=C/c1cccc(N(Cc2ccc(/C=C/c3cccc(Cl)c3)cc2)C(=O)C(C)C)c1
[2] COC(=O)/C=C/c1cccc(N(Cc2ccc(/C=C/c3cccc(F)c3)cc2)C(=O)NC(C)C)c1
Select the item whose RE^a value is smaller, choosing between 1 and 2 . Provide the label of your selected option as the answer.
2

[1] COC(=O)/C=C/c1cccc(N(Cc2ccc(/C=C/C(=O)OC(C)(C)C)cc2)C(=O)C2CCCCC2)c1
[2] COC(=O)C=Cc1cccc(N(C)C(=O)C2CCCCC2)c1
[3] COC(=O)/C=C/c1cccc(N(Cc2ccc3c(c2OC)OC(C)(C)C2C3C2(Cl)Cl)C(=O)c2ccccc2)c1 (stereo not drawn)
[4] COC(=O)C=Cc1cccc(N(Cc2ccc(C=CC(=O)OC(C)(C)C)cc2OS(C)(=O)=O)C(=O)C2CCCCC2)c1
[5] COC(=O)/C=C/c1cccc(N(Cc2ccc(-c3ccc(C(C)(C)C)cc3)cc2)C(=O)NC(C)C)c1
Arrange the 5 compounds by rising RE^a, starting with the smallest. Could you list the labels in the order requested?
2, 4, 3, 5, 1

[A] COC(=O)C=Cc1cccc(N(Cc2ccc(C=CC(=O)OC(C)(C)C)cc2)C(=O)C2CC2)c1
[B] COC(=O)/C=C/c1cccc(N(Cc2ccc(-c3ccc(F)c(F)c3)cc2)C(=O)C(C)C)c1
Please indicate which has the smaller reported RE^a: A , or B . Reply briefly: the label of your chosen item.
B

====

assayed-target: FXR (Homo sapiens, UniProt Q96RI1)
Construct: using a full length FXR on a natural response element; expressed in transfected cells
experiment: cell-based FXR transcription assay, FXR responsive promoter linked to luciferase reporter
protocol-conditions: cell-based FXR reporter assay; footnote a not given
Description: In addition to ensuring that only cell permeable compounds were selected for further optimization, this approach allows for the detection of FXR activation in a natural system (i.e., correct folding of the protein and in the presence of a complete compliment of co-activators and co-repressors). […] EC50 values were determined with Prism 3.0 software via the activity of the subject compound in the previously described cell based assay.
quantity-measured: RE^a

[P] COC(=O)C=Cc1cccc(N(Cc2ccc(C=Cc3cc(C(F)(F)F)cc(C(F)(F)F)c3)cc2)C(=O)C2CCCCC2)c1
[Q] COC(=O)/C=C/c1cccc(N(Cc2ccc(-c3ccc4c(c3)OCO4)cc2)C(=O)C2CCCCC2)c1
[R] COC(=O)/C=C/c1cccc(N(Cc2ccc(-c3c(OC)cccc3OC)cc2)C(=O)NC(C)C)c1
[S] COC(=O)/C=C/c1cccc(N(Cc2ccc(-c3cc(Cl)cc(Cl)c3)cc2)C(=O)C(C)C)c1
[T] COC(=O)/C=C/c1cccc(N(Cc2ccc(-c3ccc(N(C)C)cc3)cc2)C(=O)C(C)C)c1
Kindly provide a descending ordering of the above compounds based on their RE^a. Thanks in advance for listing the labels in the requested order.
Q, T, S, P, R
(Q: 1.90, T: 1.07, S: 0.54, P: 0.15, R: 0.10)

[1] COC(=O)/C=C/c1cccc(N(Cc2ccc(/C=C/C(=O)OC(C)(C)C)cc2)C(=O)c2ccco2)c1
[2] CC(C)(C)OC(=O)C=Cc1ccc(CN(C(=O)C2CCCCC2)c2cccc(C=CCOc3ccccc3)c2)cc1
Select the item with the higher value of RE^a from the options 1 and 2 listed. # reply format: chosen label
1

====

assayed-target: FXR (Homo sapiens, UniProt Q96RI1)
Construct: using a full length FXR on a natural response element; expressed in transfected cells
Sequence (Q96RI1 1-486): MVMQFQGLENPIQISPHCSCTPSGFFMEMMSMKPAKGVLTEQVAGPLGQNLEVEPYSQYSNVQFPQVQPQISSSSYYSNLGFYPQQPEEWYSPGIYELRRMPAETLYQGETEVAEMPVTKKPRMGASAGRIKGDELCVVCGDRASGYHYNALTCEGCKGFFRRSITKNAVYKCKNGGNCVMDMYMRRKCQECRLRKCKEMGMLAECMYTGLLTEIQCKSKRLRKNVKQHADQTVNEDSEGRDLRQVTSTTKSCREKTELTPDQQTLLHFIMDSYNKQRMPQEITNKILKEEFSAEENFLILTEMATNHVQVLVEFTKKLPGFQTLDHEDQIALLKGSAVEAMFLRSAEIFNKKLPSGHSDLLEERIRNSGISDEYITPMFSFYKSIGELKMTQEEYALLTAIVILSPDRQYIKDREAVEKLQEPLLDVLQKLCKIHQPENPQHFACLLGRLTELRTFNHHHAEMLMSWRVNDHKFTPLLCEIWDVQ
experiment: cell-based FXR transcription assay, FXR responsive promoter linked to luciferase reporter
protocol-conditions: cell-based reporter assay, SAR discussion
quantity-measured: FXR activation, in words

compound	measured
COC(=O)/C=C/c1cccc(N(Cc2ccc(-c3ccc4c(c3)OCO4)cc2)C(=O)NC(C)C)c1 [Compound 246]	excellent activity
COC(=O)/C=C/c1cccc(N(Cc2ccc(-c3c(OC)cccc3OC)cc2)C(=O)C2CCCCC2)c1 [Compound 256]	excellent activity
COC(=O)/C=C/c1cccc(N(Cc2ccc(-c3ccc(SC)cc3)cc2)C(=O)C(C)C)c1 [Compound 216]	excellent activity
COC(=O)/C=C/c1cccc(N(Cc2ccc(-c3ccc(C)cc3)cc2)C(=O)C2CCCCC2)c1 [Compound 235]	excellent activity
COC(=O)/C=C/c1cccc(N(Cc2ccc(-c3ccc4c(c3)OCO4)cc2)C(=O)C2CCCCC2)c1 [Compound 244]	excellent activity
COC(=O)/C=C/c1cccc(N(Cc2ccc(-c3cccc(Cl)c3)cc2)C(=O)C(C)C)c1 [Compound 233]	excellent activity
COC(=O)/C=C/c1cccc(N(Cc2ccc(-c3cccc(OC)c3)cc2)C(=O)C(C)C)c1 [Compound 224]	excellent activity
COC(=O)/C=C/c1cccc(N(Cc2ccc(/C=C/c3c(F)cccc3F)cc2)C(=O)C(C)C)c1 [Compound 190]	excellent activity
COc1c(CN(C(=O)C2CC2)c2cccc(/C=C/C#N)c2)ccc2c1OC(C)(C)C=C2 [Compound 34]	inactive
CCOC(=O)/C=C/c1cccc(N(Cc2ccc3c(c2OC)OC(C)(C)C=C3)C(=O)C2CC2)c1 [Compound 30]	inactive

Notebook: pull reported FXR activation, in words for FXR (Homo sapiens, UniProt Q96RI1), entry COC(=O)/C=C/c1cccc(N(Cc2ccc(-c3ccc(OC)cc3)cc2)C(=O)C(C)C)c1 [Compound 230]
excellent activity

Item: COC(=O)C=Cc1cccc(N(Cc2ccc(C=Cc3c(F)cccc3F)cc2)C(=O)C2CCCCC2)c1 [Compound 189] Test system: FXR (Homo sapiens, UniProt Q96RI1) Read-out: FXR activation, in words Value: ?
excellent activity
